tested on: MV-4-11; assay: Cell proliferation assay (Cell Titer-Glo); format: cell-based; conditions: Homo sapiens, MV4-11, 72 h, MV-4-11 cells, compound treatment 72 h, CellTiter-Glo
Readout Type: IC50 (nM)
Lab book: enter the figure in nM, no units written.

Completed entries (count: 5):
# Compound, Readout Units, IC50
records = [
    ("Cc1nnn(C)c1-c1cnc2c3nn(C)c(C(C)(C)O)c3n([C@H](c3ccccn3)C3CCOCC3)c2c1", "nM", 0.75),
    ("Cc1nnn(C)c1-c1cnc2c3nn(C)c(C(C)(C)O)c3n(C(c3ncccc3F)C3CCOCC3)c2c1 (racemic)", "nM", 3.42),
    ("Cc1nnn(C)c1-c1cnc2c3nn(C)c(C(C)(C)O)c3n(C(c3ccccn3)C3CCOCC3)c2c1 (racemic)", "nM", 1.98),
    ("[2H]C([2H])([2H])c1nnn(C)c1-c1cnc2c3nn(C)c(C(=O)OC)c3n(C(c3ncccc3F)C3CCOCC3)c2c1 (stereo not shown)", "nM", 3.3),
    ("Cc1nnn(C)c1-c1cnc2c3nn(C)c(C(C)(C)O)c3n(C(c3ccccc3)C3CCOCC3)c2c1 (racemic)", "nM", 1.48),
]

Problem: Under MV-4-11: IC50 value of `Cc1nnn(C)c1-c1cnc2c3nn(C)c(C(C)(C)O)c3n([C@@H](c3ccccn3)C3CCOCC3)c2c1` ?
Result: 139

Problem: Under MV-4-11: IC50 value of COC(=O)c1c2c(nn1C)c1ncc(-c3c(C)nnn3C)cc1n2C(c1ncccc1F)C1CCOCC1 (stereo not shown) ?
Result: 1.52

* * *

Measured IC50, listed per entry.
target: BRD4 (BD1) (Homo sapiens, UniProt O60885); construct: purchased Reaction Biology Company RD-11-157; experiment: BRD4 (BD1) binding assay (HTRF); conditions: BRD4 (D1) with GST tag and biotin-labeled acetylated peptide
Lab book: enter the figure in nM, no units written.

Completed entries (count: 5):
# Compound, Tested On, IC50 [nM]
data = [
    ("[2H]C([2H])([2H])c1nnn(C)c1-c1cnc2c3nn(C)c(C(C)(C)O)c3n(C(c3ncccc3F)C3CCOCC3)c2c1 (single isomer, unassigned) [Example 19]", "BRD4 (BD1) (Homo sapiens, UniProt O60885)", 5),
    ("Cc1nnn(C)c1-c1cnc2c3nn(C)c(C(C)(C)O)c3n([C@H](c3ccccn3)C3CCOCC3)c2c1 [Example 8]", "BRD4 (BD1) (Homo sapiens, UniProt O60885)", 0.18),
    ("[2H]C([2H])([2H])c1nnn(C)c1-c1cnc2c3nn(C([2H])([2H])[2H])c(C(C)(C)O)c3n(C(c3ncccc3F)C3CCOCC3)c2c1 (single isomer, unassigned) [Example 24]", "BRD4 (BD1) (Homo sapiens, UniProt O60885)", 0.17),
    ("[2H]C([2H])([2H])c1nnn(C)c1-c1cnc2c3nn(C)c(C(=O)OC)c3n(C(c3ncccc3F)C3CCOCC3)c2c1 (stereo not drawn) [Example 17]", "BRD4 (BD1) (Homo sapiens, UniProt O60885)", 0.59),
    ("[2H]C([2H])([2H])c1nnn(C)c1-c1cnc2c3nn(C)c(C(C)(C)O)c3n(C(c3ncccc3F)C3CCOCC3)c2c1 (single isomer, unassigned) [Example 20]", "BRD4 (BD1) (Homo sapiens, UniProt O60885)", 0.17),
]

Query compound follows.
Problem: Item Cc1nnn(C)c1-c1cnc2c3nn(C)c(C(C)(C)O)c3n(C(c3ccccc3)C3CCOCC3)c2c1 (racemic) [Example 2] has what recorded IC50?
Result: 0.3
